Entry source: patent US20190119282A1

- TESTED_TARGET: PAR2 (HT-29 cells, SLIGKV activation) (Homo sapiens)
- Construct: host or cells: HT-29 cells
- PROTOCOL_TEXT: Ca FLIPR TETRA assay, ANTAGONIST mode, stimulation with 8 μM SLIGKV
- Assay type: cell-based
- MEASUREMENT_CONDITIONS: HT-29 cells, antagonist mode, stimulation with 8 μM SLIGKV
The entries below come with measured IC50 values attached.
Just the number plus its unit, please.

// worked examples, IC50 included
1. CC(C)c1cc(-c2ccc(C(F)(F)F)cc2)nn2cc(C(=O)N3CCN(C(=O)[C@H]4C[C@](O)(C(F)(F)F)C4)CC3(C)C)nc12: 0.3 nM
2. Cc1ccc(-c2cc(C(C)(C)C)c3nc(C(=O)N4CCN(C(=O)[C@H]5C[C@@](C)(O)C5)CC4(C)C)cn3n2)cc1: 0.4 nM
3. CC(CO)N1CCN(C(=O)c2cn3nc(-c4ccc(F)cc4)cc(C(C)(C)C)c3n2)C(C)(C)C1=O (centres unmarked): 5 nM
4. Cc1cccc(-c2cc(C(C)(C)C)c3nc(C(=O)N4CCN(C(=O)C5CC(C)(O)C5)CC4(C)C)cn3n2)c1 (centres unmarked): 1.7 nM
5. CC(=O)N1CCN(C(=O)c2cn3nc(-c4ccc(F)cc4)cc(C(C)C)c3n2)C(C)(C)C1: 23.5 nM
6. CC(C)(C)c1cc(-c2ccc(F)cc2)nn2cc(C(=O)N3CCN(C(=O)c4ccon4)CC3(C)C)nc12: 0.7 nM
7. Cc1cc(-c2cc(C(C)C)c3nc(C(=O)N4CCN(C(=O)[C@H]5C[C@@](O)(C(F)(F)F)C5)CC4(C)C)cn3n2)ccc1F: 3.9 nM
8. CC(C)(C)c1cc(-c2ccc(F)cc2)nn2cc(C(=O)N3CCN(C(=O)c4ncccn4)CC3(C)C)nc12: 1.8 nM
9. CC(C)(F)c1cc(-c2ccc(F)cc2)nn2cc(C(=O)N3CCNC(=O)C3(C)C)nc12: 13 nM
10. Cc1ccc(-c2cc(C(C)(C)C)c3nc(C(=O)N4CCN(c5cn[nH]c5)C(=O)C4(C)C)cn3n2)cc1F: 1.1 nM

Suppose we examine the compound Cc1ccc(-c2cc(C(C)(C)C)c3nc(C(=O)N4CCN(C(=O)c5nnc(C)o5)CC4(C)C)cn3n2)cc1 ; what IC50 value has been reported? 1.6 nM

Suppose we examine the compound CC(C)c1cc(-c2ccc(F)cc2)nn2cc(C(=O)N3CCN(c4nn[nH]n4)C(=O)C3(C)C)nc12 ; what IC50 value has been reported? 9.8 nM

Suppose we examine the compound CC(C)(C)c1cc(-c2ccc(Cl)cc2)nn2cc(C(=O)N3CCN(C(=O)c4ccn[nH]4)CC3(C)C)nc12 ; what IC50 value has been reported? 0.8 nM

Suppose we examine the compound CC(C)(C)c1cc(-c2ccc(F)cc2)nn2cc(C(=O)N3CCN(C(=O)C4CC(O)(C(F)(F)F)C4)CC3(C)C)nc12 (centres unmarked) ; what IC50 value has been reported? 0.1 nM

###

The entries below come with measured pIC50 values attached.
- TESTED_TARGET: PAR2 (HT-29 cells, trypsin activation) (Homo sapiens, UniProt P55085)
- Construct: host or cells: HT-29 cells
- PROTOCOL_TEXT: Ca FLIPR TETRA assay, ANTAGONIST mode, stimulation with 3.1 U/mL trypsin
- Format: cell-based
- MEASUREMENT_CONDITIONS: HT-29 cells, antagonist mode, stimulation with 3.1 U/mL trypsin
// pIC50 here means minus log10 of the molar concentration (mol/L)

// worked examples, pIC50 included
1) Cc1cc(-c2cc(C(C)C)c3nc(C(=O)N4CCN(C(=O)C5CC(C)(O)C5)CC4(C)C)cn3n2)ccc1F (centres unmarked) [Compound I-378]: 8.14
2) CC(C)c1cc(-c2ccc(C(F)F)cc2)nn2cc(C(=O)N3CCNC(=O)C3(C)C)nc12 [Compound I-300]: 7.58

Suppose we examine the compound Cc1ccc(-c2cc(C(C)C)c3nc(C(=O)N4CCN(C(=O)c5ccn[nH]5)CC4(C)C)cn3n2)cc1F [Compound I-374] ; what pIC50 value has been reported? 8.80

Suppose we examine the compound CC(C)(C)c1cc(-c2ccc(C(F)(F)F)cc2)nn2cc(C(=O)N3CCN(C(=O)c4ccn[nH]4)CC3(C)C)nc12 [Compound I-401] ; what pIC50 value has been reported? 8.82

###

- TESTED_TARGET: PAR2 (HT-29 cells, trypsin activation) (Homo sapiens, UniProt P55085)
- Construct: host or cells: HT-29 cells
- Sequence (P55085 26-397): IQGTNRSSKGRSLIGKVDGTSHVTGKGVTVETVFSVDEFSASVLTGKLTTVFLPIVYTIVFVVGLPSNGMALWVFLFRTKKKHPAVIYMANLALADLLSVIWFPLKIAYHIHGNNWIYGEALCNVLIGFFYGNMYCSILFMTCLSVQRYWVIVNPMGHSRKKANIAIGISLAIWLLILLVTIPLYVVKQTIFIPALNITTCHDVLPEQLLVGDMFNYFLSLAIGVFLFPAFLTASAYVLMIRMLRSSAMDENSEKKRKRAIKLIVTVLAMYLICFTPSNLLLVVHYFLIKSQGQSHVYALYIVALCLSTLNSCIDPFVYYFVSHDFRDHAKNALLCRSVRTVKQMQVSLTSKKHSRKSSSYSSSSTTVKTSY
- PROTOCOL_TEXT: Ca FLIPR TETRA assay, ANTAGONIST mode, stimulation with 3.1 U/mL trypsin
- Format: cell-based
- MEASUREMENT_CONDITIONS: HT-29 cells, stimulation with 3.1 U/mL trypsin
The entries below come with measured log10(IC50) values attached.
// do not treat as linear: log10 of IC50, unit nM

// worked examples, log10(IC50) included
1. CC(C)c1cc(-c2ccc(F)cc2)nn2cc(C(=O)N3CCN(C(=O)[C@H](O)CC(C)(C)C)CC3(C)C)nc12: -0.05
2. CCc1cc(-c2ccc(F)cc2)nn2cc(C(=O)N3CCN(C(=O)[C@H](O)CC(C)C)[C@@H](C)C3)nc12: 1.23
3. CC(C)c1cc(-c2ccc(F)cc2)nn2cc(C(=O)N3CCN(C(=O)CC4CCOCC4)[C@@H](C)C3)nc12: 2.11
4. CC(C)c1cc(-c2ccc(F)cc2)nn2cc(C(=O)N3CCN(C(=O)C4(N)CCC4)[C@@H](C)C3)nc12: 3.54
5. CC(C)c1cc(-c2ccc(F)cc2)nn2cc(C(=O)N3CCN(C(=O)C4(NC(=O)OC(C)(C)C)CC4)[C@@H](C)C3)nc12: 1.98

Suppose we examine the molecule C[C@H]1CN(C(=O)c2cn3nc(-c4ccc(F)cc4)cc(C(F)(F)F)c3n2)CCN1C(=O)c1ccccc1 ; what log10(IC50) value has been reported? 2.95

Suppose we examine the molecule CC(C)c1cc(-c2ccc(F)cc2)nn2cc(C(=O)N3CCN(C(=O)C4(N)CCCCC4)[C@@H](C)C3)nc12 ; what log10(IC50) value has been reported? 3.83

###

The entries below come with measured pIC50 values attached.
- TESTED_TARGET: PAR2 (HT-29 cells, SLIGKV activation) (Homo sapiens, UniProt P55085)
- Construct: host or cells: HT-29 cells
- PROTOCOL_TEXT: Ca FLIPR TETRA assay, ANTAGONIST mode, stimulation with 8 μM SLIGKV
- Type: cell-based
- MEASUREMENT_CONDITIONS: HT-29 cells, antagonist mode, stimulation with 8 μM SLIGKV
- Method: Example 60: Protocol for Testing PAR2 Compounds in ANTAGONIST Mode Using the Ca FLIPR^TETRA Assay (384 Well) […] A first read was performed to determine whether the test compounds on their own can activate Ca2+ responses. The cells were incubated with the compounds for 30 min at r. t. and then read in ANTAGONIST mode in the same plate by stimulating with 6.2 uL of a fixed concentration of the activator: final concentrations: 8 μM SLIGKV, 1 U/mL Thrombin, 3.1 U/mL trypsin, or 0.6 μM UTP.
// pIC50 here means minus log10 of the molar concentration (mol/L)

1) Cc1ccc(-c2cc(C(C)(C)C)c3nc(C(=O)N4CCN(C(=O)[C@H]5C[C@@](C)(O)C5)CC4(C)C)cn3n2)cc1F: 9.52

Query the reported pIC50 for PAR2 (HT-29 cells, SLIGKV activation) (Homo sapiens, UniProt P55085); item: CC(C)(C)c1cc(-c2ccc(F)cc2)nn2cc(C(=O)N3CCN(C(=O)c4ccncc4)CC3(C)C)nc12 8.57

Query the reported pIC50 for PAR2 (HT-29 cells, SLIGKV activation) (Homo sapiens, UniProt P55085); item: CC(C)c1cc(-c2ccc(C(F)(F)F)cc2)nn2cc(C(=O)N3CCN(C(=O)c4nc[nH]n4)CC3(C)C)nc12 8.48

Query the reported pIC50 for PAR2 (HT-29 cells, SLIGKV activation) (Homo sapiens, UniProt P55085); item: Cc1cc(-c2cc(C(C)(C)C)c3nc(C(=O)N4CCN(C(=O)C5CC(C)(O)C5)CC4(C)C)cn3n2)ccc1F (stereo not drawn) 9.22

Query the reported pIC50 for PAR2 (HT-29 cells, SLIGKV activation) (Homo sapiens, UniProt P55085); item: CC(C)(C)c1cc(-c2ccc(F)cc2)nn2cc(C(=O)N3CCN(C(=O)[C@H]4C[C@@](C)(O)C4)CC3(C)C)nc12 9.40

Query the reported pIC50 for PAR2 (HT-29 cells, SLIGKV activation) (Homo sapiens, UniProt P55085); item: Cc1ccc(-c2cc(C(C)C)c3nc(C(=O)N4CCN(C(=O)c5cc(C)n[nH]5)CC4(C)C)cn3n2)cc1 8.77
